target: NRAS Q61K binding to BRAF RBD (Homo sapiens (Human), UniProt P01111+P62937, Q61K); experiment: Ras-Raf disruption/FRET/MOA assay, NRAS Q61K; format: biochemical
Sequence (P01111 whole entry Q61K): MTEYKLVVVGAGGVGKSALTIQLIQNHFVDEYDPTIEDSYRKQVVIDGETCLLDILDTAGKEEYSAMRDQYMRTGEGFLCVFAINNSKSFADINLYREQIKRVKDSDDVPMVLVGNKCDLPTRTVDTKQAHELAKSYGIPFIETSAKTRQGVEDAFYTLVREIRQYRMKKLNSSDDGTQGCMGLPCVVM
Sequence (P62937 whole entry): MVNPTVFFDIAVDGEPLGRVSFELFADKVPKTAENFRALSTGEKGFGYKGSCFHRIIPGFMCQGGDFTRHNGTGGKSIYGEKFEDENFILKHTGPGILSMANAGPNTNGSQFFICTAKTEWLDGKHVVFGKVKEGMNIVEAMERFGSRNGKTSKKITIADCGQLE
pIC50: −log10 of the molar value.
Measured pIC50, listed per entry for reference.

COMPOUND: C=C(C)C(=O)N1CC(N(C)C(=O)N(C)[C@H](C(=O)N[C@H]2Cc3nc(cs3)-c3ccc4c(c3)c(c(-c3cccnc3[C@H](C)OC)n4CC)CC(C)(C)COC(=O)[C@@H]3CCCN(N3)C2=O)C(C)C)C1
PROPERTY_LABEL: pIC50
REPORTED_MEASUREMENT: 5.00 to 6.00

// query Any idea what its pIC50 is? The compound is CC[C@H](COC1CN(C(=O)C#CC(C)(C)N(C)C)C1)C(=O)N[C@H]1Cc2nc(cs2)-c2ccc3c(c2)c(c(-c2cccnc2[C@H](C)OC)n3CC)CC(C)(C)COC(=O)[C@@H]2CCCN(N2)C1=O (atropisomer, axis not shown)
// result 6.00 to 7.00

###

target: KRAS WT (Homo sapiens (Human), UniProt P01116+P62937); assay: Ras-Raf disruption/FRET/MOA assay (BRAF RBD, Cyclophilin A); assay type: biochemical; settings: read-out: KRAS WT FRET data IC50
Sequence (P01116 other isoform, or with tags, fused parts or gaps): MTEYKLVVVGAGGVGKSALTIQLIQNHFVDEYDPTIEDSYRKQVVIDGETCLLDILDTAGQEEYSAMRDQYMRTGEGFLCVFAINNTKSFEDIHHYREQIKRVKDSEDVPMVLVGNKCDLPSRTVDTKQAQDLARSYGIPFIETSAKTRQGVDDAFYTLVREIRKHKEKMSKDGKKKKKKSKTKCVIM
Sequence (P62937 whole entry): as the sequence (P62937 whole entry) above
Measured IC50, listed per entry for reference.

Record excerpt, results attached:
COMPOUND: CCn1c(-c2cccnc2[C@H](C)OC)c2c3cc(ccc31)-c1cc(O)cc(c1)C[C@H](NS(=O)(=O)c1ccc(O)cc1)C(=O)N1CCC[C@H](N1)C(=O)OCC(C)(C)C2 [Compound A195]
IC50: > 10000 nM
//
COMPOUND: CCn1c(-c2cccnc2[C@H](C)OC)c2c3cc(ccc31)-c1cc(O)cc(c1)C[C@H](NC(=O)[C@@H](C(C)C)N(C)C(C)=O)C(=O)N1CCC[C@H](N1)C(=O)OCC(C)(C)C2 [Compound A256]
IC50: 1000 to 10000 nM
//
COMPOUND: CCn1c(-c2cccnc2[C@H](C)OC)c2c3cc(ccc31)-c1cc(O)cc(c1)C[C@H](NC(=O)[C@H](C(C)C)N(C)C(=O)[C@@H]1[C@@H]3CNC[C@@H]31)C(=O)N1CCC[C@H](N1)C(=O)OCC(C)(C)C2 [Compound A164]
IC50: 10 to 100 nM
//
COMPOUND: CCn1c(-c2cccnc2[C@H](C)OC)c2c3cc(ccc31)-c1cc(O)cc(c1)C[C@H](NC(=O)[C@H](C(C)C)N(C)C(=O)C1CCCC1)C(=O)N1CCC[C@H](N1)C(=O)OCC(C)(C)C2 [Compound A219]
IC50: 10 to 100 nM
//
COMPOUND: CCn1c(-c2cccnc2[C@H](C)OC)c2c3cc(ccc31)-c1csc(n1)C[C@H](NC(=O)[C@H](C(C)C)N(C)C(=O)N1CCOC3(COC3)C1)C(=O)N1CCC[C@H](N1)C(=O)OCC(C)(C)C2 [Compound A475]
IC50: 10 to 100 nM
//
COMPOUND: CCn1c(-c2cccnc2[C@H](C)OC)c2c3cc(ccc31)-c1csc(n1)C[C@H](NC(=O)[C@H](C(C)C)N(C)C(=O)[C@H]1CCN(C(=O)CN(C)C)C1)C(=O)N1CCC[C@H](N1)C(=O)OCC(C)(C)C2 [Compound A97]
IC50: 1000 to 10000 nM
//
COMPOUND: CCn1c(-c2cccnc2[C@H](C)OC)c2c3cc(ccc31)-c1csc(n1)C[C@H](NC(=O)[C@H](C(C)C)N(C)C(=O)N(C)C1COC1)C(=O)N1CCC[C@H](N1)C(=O)OCC(C)(C)C2 [Compound A334]
IC50: 100 to 1000 nM
//
COMPOUND: CCn1c(-c2cccnc2[C@H](C)OC)c2c3cc(ccc31)-c1cc(O)cc(c1)C[C@H](NC(=O)C(C)=C(C)C)C(=O)N1CCC[C@H](N1)C(=O)OCC(C)(C)C2 [Compound A398]
IC50: 1000 to 10000 nM
//
COMPOUND: CCn1c(-c2cnccc2COC)c2c3cc(ccc31)-c1cc(O)cc(c1)C[C@H](NC(=O)[C@H](C(C)C)N(C)C(=O)[C@H]1CN(C(C)=O)C[C@H]1C(F)(F)F)C(=O)N1CCC[C@H](N1)C(=O)OCC(C)(C)C2 [Compound A215]
IC50: 100 to 1000 nM
//
COMPOUND: CCn1c(-c2cccnc2[C@H](C)OC)c2c3cc(ccc31)-c1cc(O)cc(c1)C[C@H](NC(=O)[C@H](C(C)C)N(C)C(=O)[C@H]1[C@@H](N)[C@@H]3CC[C@H]1O3)C(=O)N1CCC[C@H](N1)C(=O)OCC(C)(C)C2 [Compound A421]
IC50: 100 to 1000 nM

// query Any idea what its IC50 is? The compound is CCn1c(-c2cccnc2[C@H](C)OC)c2c3cc(ccc31)-c1csc(n1)C[C@H](NC(=O)[C@H](C(C)C)N(C)C(=O)N1CCCC3(CN(C)C3)C1)C(=O)N1CCC[C@H](N1)C(=O)OCC(C)(C)C2 [Compound A589]
// result 100 to 1000 nM

// query Any idea what its IC50 is? The compound is CCn1c(-c2cnccc2COC)c2c3cc(ccc31)-c1cc(O)cc(c1)C[C@H](NC(=O)[C@H](C(C)C)N(C)c1ncco1)C(=O)N1CCC[C@H](N1)C(=O)OCC(C)(C)C2 [Compound A52]
// result 1000 to 10000 nM

// query Any idea what its IC50 is? The compound is CCn1c(-c2cccnc2[C@H](C)OC)c2c3cc(ccc31)-c1cc(O)cc(c1)C[C@H](NC(=O)[C@H](C(C)C)N(C)C(=O)[C@@H]1COC[C@@H]1N)C(=O)N1CCC[C@H](N1)C(=O)OCC(C)(C)C2 [Compound A418]
// result 10 to 100 nM

// query Any idea what its IC50 is? The compound is CCn1c(-c2cccnc2[C@H](C)OC)c2c3cc(ccc31)-c1cc(O)cc(c1)C[C@H](NC(=O)[C@H](C(C)C)N(C)C(=O)C1CC(=O)N(C3CC3)C1)C(=O)N1CCC[C@H](N1)C(=O)OCC(C)(C)C2 (stereo partly drawn) [Compound A252]
// result 10 to 100 nM

// query Any idea what its IC50 is? The compound is CCn1c(-c2cccnc2[C@H](C)OC)c2c3cc(ccc31)-c1csc(n1)C[C@H](NC(=O)[C@H](C(C)C)N(C)C(=O)N1CC3(CCCN(C)C3=O)C1)C(=O)N1CCC[C@H](N1)C(=O)OCC(C)(C)C2 [Compound A453]
// result 1000 to 10000 nM

// query Any idea what its IC50 is? The compound is CCn1c(-c2cc(N3CCN(C)CC3)cnc2[C@H](C)OC)c2c3cc(ccc31)-c1csc(n1)C[C@H](NC(=O)[C@H](C(C)C)N(C)C(=O)N1CC(C3COC3)C1)C(=O)N1CCC[C@H](N1)C(=O)OCC(C)(C)C2 [Compound A465]
// result 10 to 100 nM

// query Any idea what its IC50 is? The compound is CCn1c(-c2cccnc2[C@H](C)OC)c2c3cc(ccc31)-c1cc(O)cc(c1)C[C@H](NC(=O)[C@H](C(C)C)N(C)C(=O)C1CNCCNC1)C(=O)N1CCC[C@H](N1)C(=O)OCC(C)(C)C2 [Compound A432]
// result 100 to 1000 nM

// query Any idea what its IC50 is? The compound is CCn1c(-c2cccnc2[C@H](C)OC)c2c3cc(ccc31)-c1cc(O)cc(c1)C[C@H](NC(=O)[C@H](C(C)C)N(C)C(=O)[C@H]1CCCO1)C(=O)N1CCC[C@H](N1)C(=O)OCC(C)(C)C2 [Compound A240]
// result 100 to 1000 nM
